Tested on: HS 578T breast
Experiment: NCI tumour cell line growth inhibition, 48 h
quantityName: TGI (µM)
Numeric answer only, unit µM assumed.

The examples below pair each entry with its known result.
structureString	outputUnit	resultNumber
O=c1c2cc(I)ccc2nc(-c2cccs2)n1-c1ccc(S(=O)(=O)Nc2nccs2)cc1	µM	84.1
O=C1/C(=C/c2cccc(O)c2)COc2ccccc21	µM	43.6
CCCCC/C=C\C=C1\C(=O)C=C[C@@H]1C/C=C\CCCC(=O)O	µM	13.4

Lab note: Cc1sccc1C(=S)Nc1ccc(Cl)c(/C=N/OC(C)(C)C)c1 gave TGI of 62.3

---

Test system: SR leukemia
Experiment: NCI tumour cell line growth inhibition, 48 h; in the data active = GI50 below about 0.43 µM; inactive = the rest
# output must be one of true = active, false = inactive

Example results:
structureString	cat
Nc1ccc2c(c1)Cc1cc(Cl)c(Cl)cc1-2	false
COc1cc(Nc2cc(C)nc(N3CCN(c4ccnc5cc(Cl)ccc45)CC3)n2)cc(OC)c1	true

Here's the next entry for you.
Data request: What is the recorded call for this compound in the test? CC(C)=CC(=O)OCC(=O)O[C@@H]1C[C@]2(C(C)C)O[C@@]1(C)[C@@H]1CC[C@@H](C)[C@H]1[C@@H]2OC(=O)/C=C/c1ccccc1
Data returned: false

---

Tested on: UACC-62 melanoma
Assay: NCI tumour cell line growth inhibition, 48 h
quantityName: TGI

The examples below pair each entry with its known result.
molecule	quantityName	result
CCOC(=O)C=C1CCC2(CC1)OCCO2	TGI	> 100 µM
Nc1nc2c(c3cnccc13)C(c1cccc(Br)c1)Cc1cnccc1-2 (configuration not stated)	TGI	14.2 µM
N#CCCC1(CCC#N)CCc2ccccc2C1=O	TGI	> 100 µM
CCNC(=S)NNC(=O)c1nsc2ccccc12	TGI	> 100 µM
O=C1CCCn2c(nc3ccccc32)N1	TGI	> 100 µM
C[C@]12CCC3c4ccc(O)cc4CC[C@H]3C1CC(=O)N(CCN1CCCC1)C2=O (some centres not stated)	TGI	> 10 µM
NC(CSC(=O)c1ccccc1)C(=O)O (configuration not stated)	TGI	> 100 µM
O=[N+]([O-])C(=C1NCCN1)/C(Cl)=C(/Cl)N1CCOCC1	TGI	> 100 µM
O=C1/C(=C\c2ccc(Br)cc2)CN(C(=O)c2ccccc2F)C/C1=C\c1ccc(Br)cc1	TGI	4.03 µM
CC(C)(C)c1ccc(O)c(C[N+](C)(C)C)c1	TGI	> 100 µM

Lab note: COc1ccc2c(c1)CC1Cc3cc(OC)c(OC)cc3CN1CC2 (configuration not stated) gave TGI of > 100 µM

Lab note: COC(=O)CNC(=O)c1cc(C)cc2c1Oc1c(cc(C)cc1C(=O)NCC(=O)OC)S2 gave TGI of > 100 µM

---

System: LOX IMVI melanoma
Assay: NCI tumour cell line growth inhibition, 48 h
Listing of recorded TGI by entry.

The examples below pair each entry with its known result.
compound	systemTested	quantityName	result
CC(=O)OCC1OC(OC2=C(CC=C(C)C)C(=O)c3ccccc3C2=O)C(OC(C)=O)C(OC(C)=O)C1OC(C)=O (stereo not drawn)	LOX IMVI melanoma	TGI	8.01 µM
CN(C)C=C1C(=O)N(C)C(=O)N(C)C1=O	LOX IMVI melanoma	TGI	> 100 µM

Consider now this further compound.
Lab note: Cc1cc(S(=O)(=O)Nc2nc(N)nc(N(C)C)n2)c(S)cc1Cl gave TGI of > 10 µM

---

Tested on: CCRF-CEM leukemia
Assay: NCI tumour cell line growth inhibition, 48 h; in the data active = GI50 below about 0.43 µM; inactive = the rest
# output must be one of 1 = active, -1 = inactive

Example results:
compound	cat
COc1ccc2c(CCC(c3ccccc3)c3ccccc3)c3[n+](cc2c1OC)CCc1cc2c(cc1-3)OCO2	1
O=C1OCC2=C1C(c1cccc(F)c1)c1cc3c(cc1N2CCO)CCC3 (centres undefined)	1
CCOC(=O)c1ccc2c(c1)c1c(C)c3ccncc3c(C)c1n2C	-1
O=C1NC(=NCCc2cccs2)S/C1=C\c1ccc2ncccc2c1	-1
COc1cc(-n2cncc2-c2ccc3ccccc3c2)cc(OC)c1OC	1

Data request: What is the recorded call for this compound in the test? Cn1cc(C2=C(Sc3ccccc3)C(=O)NC2=O)c2ccccc21
Data returned: -1

Data request: What is the recorded call for this compound in the test? O=C(OC(CNc1c(C(=O)c2ccccc2)c(=O)n(Cc2ccccc2)c(=O)n1Cc1ccccc1)CN1CCOCC1)c1ccccc1 (centres undefined)
Data returned: -1

Data request: What is the recorded call for this compound in the test? Cc1c(NC(=O)c2cc(C(N)=O)nc3cc(F)ccc23)c(C(F)(F)F)nn1Cc1ccc(C#N)cc1
Data returned: 1

Data request: What is the recorded call for this compound in the test? CCC[CH2][Sn]([CH2]CCC)([O]C(=O)Cc1ccc(F)cc1)[O]C(=O)Cc1ccc(F)cc1
Data returned: 1

---

Listing of recorded TGI by entry.
Test system: CAKI-1 renal
Test: NCI tumour cell line growth inhibition, 48 h
Numeric answer only, unit µM assumed.

The examples below pair each entry with its known result.
compound	systemTested	TGI [µM]
O=C(CC(=O)Nc1ccccc1Cl)NNC(c1cc(N=Nc2ccc(Br)cc2)ccc1O)P(O)O (stereo not given)	CAKI-1 renal	6.71
O=C1/C(=C/c2cccc(O)c2)COc2ccccc21	CAKI-1 renal	11.9
COc1cc2c(cc1O)N=C[C@@H]1C[C@@H](F)CN1C2=O	CAKI-1 renal	1.5

Consider now this further compound.
Lab note: Cc1cc2c(cc1C)N1C(Cl)=C3CCCCC3=C(C#N)C1N2 (stereo not given) gave TGI of 12.3

---

Tested on: RPMI-8226 leukemia
Experiment: NCI tumour cell line growth inhibition, 48 h
quantityName: GI50

Lab note: O=c1c(O)c(O)c1=O.[NH2-].[NH2-].[NH2-].[NH2-].[NH2-].[Ru+5] gave GI50 of > 100000 nM

Lab note: COc1cc(-n2cncc2-c2ccc3ccccc3c2)cc(OC)c1OC gave GI50 of 54.3 nM

Lab note: COc1cc(CC(C)C(C)Cc2ccc(O)c(OC)c2)ccc1O (centres undefined) gave GI50 of 19400 nM

Lab note: CC[C@]12C=CCN3CC[C@]4(C(=C(C(=O)OC)C1)Nc1cc(OC)c(OC(C)=O)cc14)[C@@H]32 gave GI50 of 478 nM

Lab note: Cc1c(NC(=O)c2cc(C(N)=O)nc3cc(F)ccc23)c(C(F)(F)F)nn1Cc1ccc(C#N)cc1 gave GI50 of 10.1 nM

Lab note: CN(C)c1ccc2nc3ccc(=N)cc-3sc2c1 gave GI50 of 1210 nM

Lab note: O=C1C=CC(=O)c2c1c1c(c3c2C2c4ccccc4C3c3ccccc32)C2c3ccccc3C1c1ccccc12 gave GI50 of 479 nM

Lab note: CC(C)(C)c1[nH]nc2c1C(c1cc3ccccc3[nH]c1=O)Nc1cc(C(=O)Nc3ccc(Cl)cc3)ccc1N2 (centres undefined) gave GI50 of 1900 nM

Lab note: O=C1/C(=C\c2ccc(Br)cc2)CN(C(=O)c2ccccc2F)C/C1=C\c1ccc(Br)cc1 gave GI50 of 119 nM

---

Tested on: MALME-3M melanoma
Experiment: NCI tumour cell line growth inhibition, 48 h; in the data active means GI50 below about 0.43 µM; inactive means the rest
# output must be one of true for active, false for inactive

Example results:
molecule	cat
COc1ccc2c(c1)N(CCO)C1=C(C(=O)OC1)C2c1cc(OC)c(OC)c(OC)c1 (stereo not given)	true
COc1cc(/C=C2\CC3C4CCC5=CC(=O)CC[C@]5(C)C4CC[C@]3(C)C2=O)ccc1OCCCn1ccnc1 (stereo not given in full)	false
CC1(C)CCC(S(=O)(=O)c2ccc3c(c2)/C(=N\O)c2cc(S(=O)(=O)N4CCN(c5ccc(F)cc5O)CC4)ccc2-3)CC1	true
Cc1cc(OCc2n[nH]c(=S)n2/N=C/c2ccc(F)cc2)ccc1Cl	false
Nc1nc2c(c3cnccc13)C(c1cccc(Br)c1)Cc1cnccc1-2 (stereo not given)	false
CC(=O)OCC1OC(OC2=C(CC=C(C)C)C(=O)c3ccccc3C2=O)C(OC(C)=O)C(OC(C)=O)C1OC(C)=O (stereo not given)	false
O=C1NC(=NCCc2cccs2)S/C1=C\c1ccc2ncccc2c1	false
CC(C)=CC(=O)OCC(=O)O[C@@H]1C[C@]2(C(C)C)O[C@@]1(C)[C@@H]1CC[C@@H](C)[C@H]1[C@@H]2OC(=O)/C=C/c1ccccc1	false
CCOC(=O)c1cc(C(=O)c2ccc(Cl)cc2)n2ccc(-c3cc[n+](CC(=O)c4ccc(OC)cc4)cc3)cc12	false
O=c1c(O)c(O)c1=O.[NH2-].[NH2-].[NH2-].[NH2-].[NH2-].[Ru+5]	false

Data request: What is the recorded call for this molecule in the test? Cc1c(NC(=O)c2cc(C(N)=O)nc3cc(F)ccc23)c(C(F)(F)F)nn1Cc1ccc(C#N)cc1
Data returned: false

Data request: What is the recorded call for this molecule in the test? CC[C@]12C=CCN3CC[C@]4(C(=C(C(=O)OC)C1)Nc1cc(OC)c(OC(C)=O)cc14)[C@@H]32
Data returned: false

Sourced from PubChem BioAssay (NCI)
